// data source = patent US7842808B2

measurement-target: CGRP receptor (SK-N-MC cell membranes) (Homo sapiens, UniProt O60894+Q16602)
Construct: endogenous in cells; host or cells: SK-N-MC cells (membrane homogenate)
Sequence (Q16602 23-461): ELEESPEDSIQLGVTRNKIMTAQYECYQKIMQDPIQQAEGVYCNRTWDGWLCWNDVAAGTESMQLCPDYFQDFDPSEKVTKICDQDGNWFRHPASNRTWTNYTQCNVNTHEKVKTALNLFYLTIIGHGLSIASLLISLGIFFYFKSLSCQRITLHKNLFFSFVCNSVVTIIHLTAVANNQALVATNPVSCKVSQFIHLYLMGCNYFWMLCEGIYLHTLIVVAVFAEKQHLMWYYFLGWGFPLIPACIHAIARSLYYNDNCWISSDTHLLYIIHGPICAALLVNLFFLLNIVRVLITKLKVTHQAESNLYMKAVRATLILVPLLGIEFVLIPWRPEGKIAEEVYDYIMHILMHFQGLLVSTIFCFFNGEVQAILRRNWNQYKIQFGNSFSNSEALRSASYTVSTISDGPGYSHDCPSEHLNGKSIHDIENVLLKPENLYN
Sequence (O60894 27-148): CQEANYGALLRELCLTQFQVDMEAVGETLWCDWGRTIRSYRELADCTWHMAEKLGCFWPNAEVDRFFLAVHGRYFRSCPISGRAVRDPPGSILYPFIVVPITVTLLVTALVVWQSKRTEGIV
procedure-text: CGRP Binding Assay ([125I]-CGRP radioligand binding, SK-N-MC homogenate)
condition-set: displacement of [125I]-CGRP, SK-N-MC homogenate; read-out: CGRP binding IC50
pIC50: −log10 of the molar value.
measured-quantity: pIC50

Look over these answered cases.
Requested read-out pIC50, target or system CGRP receptor (SK-N-MC cell membranes) (Homo sapiens, UniProt O60894+Q16602), entry O=C(N[C@@H](CC(=O)N1CCC(N2Cc3ccccc3NC2=O)CC1)C(=O)N1CCC(N2CCCCC2)CC1)c1ccc(O)cc1 6.00 to 7.00

What about O=C(Nc1cccc(Cl)c1)N[C@@H](CC(=O)N1CCC(N2Cc3ccccc3NC2=O)CC1)C(=O)N1CCC(N2CCCCC2)CC1 ? 7.00 to 8.00

Repeat for the following compound: Cc1cc(CC(NC(=O)N2CCC3(CC2)CC(=O)Nc2ccccc23)C(=O)N2CCCCC2)cc2cn[nH]c12 (racemic) 6.00 to 7.00

New cases:
Provide value of pIC50 for this record tested with CGRP receptor (SK-N-MC cell membranes) (Homo sapiens, UniProt O60894+Q16602): O=C(Nc1c(F)cccc1F)N[C@@H](CC(=O)N1CCC(N2Cc3ccccc3NC2=O)CC1)C(=O)N1CCC(N2CCCCC2)CC1 6.00 to 7.00

Repeat with O=C(NC(CN1CCC(O)CC1)C(=O)N1CCC(N2CCCCC2)CC1)N1CCC(N2Cc3ccccc3NC2=O)CC1 (racemic) < 6.00

Same read-out for COC(=O)C(Cc1cc(C)c2[nH]ncc2c1)NC(=O)N1CCC(N2Cc3ccccc3NC2=O)CC1 (racemic) ? 7.00 to 8.00

What do we get for CCCNC(=O)N[C@@H](CC(=O)N1CCC(N2Cc3ccccc3NC2=O)CC1)C(=O)N1CCC(N2CCCCC2)CC1 ? 6.00 to 7.00

Same lookup for O=C(N[C@@H](CC(=O)N1CCC(N2Cc3ccccc3NC2=O)CC1)C(=O)N1CCC(N2CCCCC2)CC1)c1cccc(F)c1 , please. 6.00 to 7.00

Input O=C(N[C@@H](CC(=O)N1CCC(N2Cc3ccccc3NC2=O)CC1)C(=O)N1CCC(N2CCCCC2)CC1)N[C@@H]1C[C@H]1c1ccccc1 6.00 to 7.00

And O=C1CC2(CCN(C(=O)N[C@H](Cc3csc4ccccc34)C(=O)N3CCC(N4CCCCC4)CC3)CC2)c2ccccc2N1 ? 7.00 to 8.00

How about Cc1cc(CC(CC(=O)N2CCC3(CC2)OC(=O)Nc2ccccc23)C(=O)N(C)C)cc2cn[nH]c12 (racemic) ? 7.00 to 8.00

Then this compound: Cc1ccc(NC(=O)N[C@@H](CC(=O)N2CCC(N3Cc4ccccc4NC3=O)CC2)C(=O)N2CCC(N3CCCCC3)CC2)cc1C 7.00 to 8.00

Field entry: Cc1cc(CC(NC(=O)N2CCC(N3Cc4ccccc4NC3=O)CC2)C(=O)OC2CCC(c3ccccc3)CC2)cc2cn[nH]c12 (stereo not shown) [Example 41d] 7.00 to 8.00

Entry COc1ccc(CC(=O)N[C@@H](CC(=O)N2CCC(N3Cc4ccccc4NC3=O)CC2)C(=O)N2CCC(N3CCCCC3)CC2)cc1OC please 6.00 to 7.00

====

Examples of compounds with documented IC50 follow.
measurement-target: CGRP receptor (SK-N-MC cell membranes) (Homo sapiens, UniProt O60894+Q16602)
Construct: endogenous in cells; host or cells: SK-N-MC cells (membrane homogenate)
procedure-text: CGRP Binding Assay ([125I]-CGRP radioligand binding, SK-N-MC homogenate)
condition-set: displacement of [125I]-CGRP, SK-N-MC homogenate; read-out: CGRP binding IC50

In the examples that follow, each entry is paired with its recorded IC50.
Quick check: IC50 of O=C(NCCc1ccccc1)N[C@@H](CC(=O)N1CCC(N2Cc3ccccc3NC2=O)CC1)C(=O)N1CCC(N2CCCCC2)CC1 ? 100 to 1000 nM

Next entry: CCOC(=O)c1ccc(NC(=O)N[C@@H](CC(=O)N2CCC(N3Cc4ccccc4NC3=O)CC2)C(=O)N2CCC(N3CCCCC3)CC2)cc1 100 to 1000 nM

New cases:
For the compound Cc1cc(CC(NC(=O)N2CCC3(CC2)NC(=O)Nc2ccccc23)C(=O)N2CCC(N3CCCCC3)CC2)cc2cn[nH]c12 (racemic) , what IC50 is on record? < 10 nM

====

measurement-target: CGRP receptor (SK-N-MC cell membranes) (Homo sapiens, UniProt O60894+Q16602)
Construct: endogenous in cells; host or cells: SK-N-MC cells (membrane homogenate)
procedure-text: CGRP Binding Assay ([125I]-CGRP radioligand binding, SK-N-MC homogenate)
Documented IC50 across a set of compounds

Example entries and their recorded answers appear below.
Reported IC50 for O=C(NC(Cc1ccc2[nH]ncc2c1)C(=O)N1CCC2(CC1)OCCO2)N1CCC(n2c(=O)[nH]c3ccccc32)CC1 (racemic) : what is it? 0.1 to 1 µM

O=C(NC(Cc1ccc2[nH]ccc2c1)C(=O)N1CCC2(CC1)OCCO2)N1CCC(n2c(=O)[nH]c3ccccc32)CC1 (racemic) ? 0.1 to 1 µM

Switching to the query record.
Using the record for O=C1Nc2ccccc2C2(CCN(C(=O)CC(Cc3ccc4[nH]ncc4c3)C(=O)N3CCC4(CC3)OCCO4)CC2)O1 (racemic) , report its IC50. 0.1 to 1 µM

====

measurement-target: human CGRP receptor (SK-N-MC cells) (Homo sapiens, UniProt O60894+Q16602)
Construct: SK-N-MC cells that endogenously express the human CGRP receptor; endogenous in cells; host or cells: SK-N-MC cells
Sequence (Q16602 23-461): as the sequence (Q16602 23-461) above
Sequence (O60894 27-148): as the sequence (O60894 27-148) above
procedure-text: Cyclic AMP Assay, functional antagonism of CGRP-induced cyclic AMP formation
Type: cell-based
condition-set: SK-N-MC cells, 0.3 nM CGRP; read-out: cAMP Function IC50
Description: Functional Antagonism. Antagonism of the compounds of invention was determined by measuring the formation of cyclic AMP (adenosine 3′5′-cyclic monophosphate) in SK-N-MC cells that endogenously express the human CGRP receptor. […] Cyclic AMP was extracted using the lysis reagent and its concentration was determined by radioimmunoassay using RPA559 cAMP SPA Direct Screening Assay Kit (Amersham Pharmacia Biotech). IC50 values were calculated using Excel fit.
pIC50: −log10 of the molar value.
measured-quantity: pIC50

Lab note: need pIC50 with human CGRP receptor (SK-N-MC cells) (Homo sapiens, UniProt O60894+Q16602) for entry Cc1nc2cc(C[C@@H](NC(=O)N3CCC(N4Cc5ccccc5NC4=O)CC3)C(=O)N3CCC(N4CCCCC4)CC3)ccc2[nH]1 , please look it up. 7.00 to 8.00

Would you mind doing Cc1cc(CC(CC(=O)N2CCC3(CC2)OC(=O)Nc2ccccc23)C(=O)N2CCC(N3CCCCC3)CC2)cc2cn[nH]c12 (racemic) as well? > 8.00

Cc1cc(CC(NC(=O)N2CCC(N3Cc4ccccc4NC3=O)CC2)C(=O)N2CCC(N3CCCCC3)CC2)cc2cn[nH]c12 (racemic) , same question. > 8.00

Also, CC(C)CN1CCN(C(=O)C(Cc2ccc3[nH]ncc3c2)NC(=O)N2CCC(n3c(=O)[nH]c4ccccc43)CC2)CC1 (racemic) please. 7.00 to 8.00

More entries:
human CGRP receptor (SK-N-MC cells) (Homo sapiens, UniProt O60894+Q16602) / pIC50 / Cc1cc(CC(CC(=O)N2CCC(N3Cc4ccccc4NC3=O)CC2)C(=O)N(C)C)cc2cn[nH]c12 (racemic) : value? > 8.00

Also Cc1cc(CC(NC(=O)N2CCC3(CC2)NC(=O)Nc2ccccc23)C(=O)N2CCCCC2)cc2cn[nH]c12 (racemic) , if possible. 7.00 to 8.00

Let us now turn to Cc1cc(CC(NC(=O)N2CCC3(CC2)N=C(c2ccccc2)NC3=O)C(=O)N2CCC(N3CCCCC3)CC2)cc2cn[nH]c12 (racemic) > 8.00

Further, for Cc1cc(CC(NC(=O)N2CCC3(CC2)OC(=O)Nc2ccccc23)C(=O)N2CCCCC2)cc2cn[nH]c12 (racemic) ? 7.00 to 8.00

Another molecule to check: O=C(NC(Cc1ccc2[nH]ccc2c1)C(=O)N1CCC(N2CCCCC2)CC1)N1CCC(n2c(=O)[nH]c3ccccc32)CC1 (racemic) 7.00 to 8.00

Consider next the molecule O=C(NC(Cc1ccc2[nH]ncc2c1)C(=O)N1CCNCC1)N1CCC(N2Cc3ccccc3NC2=O)CC1 (centres unmarked) in the same way. 6.00 to 7.00

What do you get for O=C(NC(Cc1ccc2[nH]ccc2c1)C(=O)N1CCC(N2CCCCC2)CC1)N1CCC(N2Cc3ccccc3NC2=O)CC1 (racemic) ? > 8.00

COC(=O)C(CC(=O)N1CCC(N2Cc3ccccc3NC2=O)CC1)Cc1cc(C)c2[nH]ncc2c1 (racemic) , same question. 6.00 to 7.00
